Below: a set of entries, each annotated with reported IC50.
Target: human Oxytocin (hOT) receptor (Homo sapiens, UniProt P30559)
Sequence (P30559 whole entry): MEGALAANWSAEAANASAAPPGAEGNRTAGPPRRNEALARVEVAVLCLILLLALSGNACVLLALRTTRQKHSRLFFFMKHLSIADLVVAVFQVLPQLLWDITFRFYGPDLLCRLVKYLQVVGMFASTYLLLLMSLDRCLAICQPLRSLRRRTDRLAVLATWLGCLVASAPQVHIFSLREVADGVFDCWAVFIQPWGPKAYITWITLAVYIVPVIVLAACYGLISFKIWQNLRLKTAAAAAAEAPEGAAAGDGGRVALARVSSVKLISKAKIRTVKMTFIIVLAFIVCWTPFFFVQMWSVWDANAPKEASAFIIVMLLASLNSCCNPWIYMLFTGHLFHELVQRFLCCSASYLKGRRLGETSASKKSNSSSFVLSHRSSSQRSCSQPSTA
reported-endpoint: IC50 (nM)

CON=C1C[C@@H](C(=O)OC)N(C(=O)c2ccc(-c3ccccc3)cc2)C1 (mixture of isomers) = 45
CON=C1C[C@@H](C(=O)OC)N(C(=O)c2ccc(-c3ccccc3C)cc2)C1 = 28
CON=C1C[C@@H](C(=O)OC)N(C(=O)c2ccc(-c3ccccc3F)cc2)C1 (mixture of isomers) = 100
CO/N=C1\C[C@@H](C(=O)OC)N(C(=O)c2ccc(-c3ccccc3C)cc2)C1 = 36
CO/N=C1/C[C@@H](C(=O)OC)N(C(=O)c2ccc(-c3ccccc3C)cc2)C1 = 12

----------
Below: a set of entries, each annotated with reported IC50.
Target: hOT receptor (Homo sapiens, UniProt P30559)
Experiment: Functional assay No. 1: inhibition of oxytocin mediated Ca2+-mobilization by FLIPR in HEK293EBNA cells
Details: HEK293EBNA cells expressing hOT receptor, OT 40 nM, fluo-4, FLIPR; read-out: Inhibition of Ca2+ mobiliation, hOT-R IC50
reported-endpoint: IC50

CO/N=C1/C[C@@H](C(=O)OC)N(C(=O)c2ccc(-c3ccccc3C)cc2)C1 = 15 nM
CO/N=C1\C[C@@H](C(=O)OC)N(C(=O)c2ccc(-c3ccccc3C)cc2)C1 = 15 nM
